# Measured Target: recombinant human 11beta-HSD1 (Homo sapiens, UniProt P28845)
# Construct: Full length recombinant human 11β-HSD1 cDNAs and the cDNA encoding human 11β-HSD2 were expressed stably in HEK 293 EBNA cells; microsome fraction used
# Sequence (P28845 whole entry): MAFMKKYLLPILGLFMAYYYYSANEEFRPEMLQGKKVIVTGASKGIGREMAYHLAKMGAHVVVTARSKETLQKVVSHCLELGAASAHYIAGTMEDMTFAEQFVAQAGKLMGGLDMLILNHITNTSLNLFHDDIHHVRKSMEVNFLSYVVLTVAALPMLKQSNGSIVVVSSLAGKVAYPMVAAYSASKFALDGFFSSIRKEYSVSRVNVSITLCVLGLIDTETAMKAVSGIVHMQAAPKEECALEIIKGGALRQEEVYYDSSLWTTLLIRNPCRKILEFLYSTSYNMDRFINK
# Assay Method Text: 11β-HSD1 SPA enzyme assay (in vitro inhibition of recombinant human 11beta-HSD1)
# Test Parameters: human 11β-HSD1 microsomes from HEK 293 EBNA cells, 3H-cortisone 40 nM, 4 hrs room temperature
For each entry below, report its IC50 value.
Don't forget the unit after the number, please.

Field request: IC50 | item: CC(C)(O)c1cccn2c(C3(c4nc(-c5ccc(Cl)cc5)cs4)CC3)nnc12
0.5 nM

Requested read-out: IC50. Entry: CC(C)(c1cccn2c(C3(c4ccc(Cl)cc4)CCC3)nnc12)c1nnnn1CCC#N
5490 nM

Quick one: IC50 of CC(C)(O)c1cccn2c(C3(c4ccc(-c5ccc(F)cc5)cc4)CC3)nnc12 ?
0.4 nM

Where these numbers come from: patent US8541444B2
